- System: ICAM-1 expression in human umbilical cord vascular endothelial cells
- test: Inhibitory activity of adhesion molecule expression (ICAM-1, cell-ELISA)
- Format: cell-based
- run_conditions: TNFα 1 ng/ml, 37° C., 5 hours
Provide the reported IC50 of each item.
Answers are plain numbers, in µM.

# example entries with known answers
> print(dat)
                           structure.smiles  experimental.value
1   CCCCC=C1SC(=O)N(CCCCOc2cccn3ccnc23)C1=O                 6.1
2  CCCC=C1SC(=O)N(CCC(C)(C)CCSc2cccc3nccn23)C1=O                   5
3    CCCC=C1SC(=O)N(CCCCSc2cccc3nccn23)C1=O                   3
4  O=c1cc2n(c(=O)n1CCCCSc1cccc3nccn13)CCCS2(=O)=O                 3.5

Now turn to the next molecule.
Look at this molecule and give its reported IC50. `O=C(CCCSc1cccc2nccn12)NCCCn1c(=O)c(-c2ccccc2)c2n(c1=O)CCCS2(=O)=O`
5.9
